B1: TRAF3IP2 (parent)
chain: KEHVPTWLQNTHVYSWPKNKKNIL

- Variants of: B1
- procedure_details: protein stability index of a GFP-peptide fusion (GPS, HEK-293T) (PSI 1-6); higher = more stable;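 also: lentivirally expressed fusions sorted by FACS into six bins by GFP to DsRed ratio, PSI derived from sequencing read proportions per bin multiplied by bin number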
- test_conditions: c terminus: a fixed tail appended
Label true when protein stability index is at or above 3; otherwise label false.

Problem: Decide: protein stability index of `KEHVPTWLQNTHVYSWPKNEKNIL` >= 3?
Result: false

Problem: Decide: protein stability index of `KEHVPTWLQNTNVYSWPKNKKNIL` >= 3?
Result: false

Problem: Decide: protein stability index of `KEHFPTWLQNTHVYSWPKNKKNIL` >= 3?
Result: false

Problem: Decide: protein stability index of `KEHVPTWLQNTQVYSWPKNKKNIL` >= 3?
Result: false

Problem: Decide: protein stability index of `KEHVPTWTQNTHVYSWPKNKKNIL` >= 3?
Result: true

Problem: Decide: protein stability index of `KEHVPTWLCNTHVYSWPKNKKNIL` >= 3?
Result: false

Problem: Decide: protein stability index of `REHVPTWLQNTHVYSWPKNKKNIL` >= 3?
Result: false

Problem: Decide: protein stability index of `KEHVPCWLQNTHVYSWPKNKKNIL` >= 3?
Result: false

Problem: Decide: protein stability index of `KEHVPTSLQNTHVYSWPKNKKNIL` >= 3?
Result: true

Problem: Decide: protein stability index of `KEQVPTWLQNTHVYSWPKNKKNIL` >= 3?
Result: false

// data source = the supplement of paper PMC10567573
